molecular target: FAST (Halorhodospira halophila, UniProt P16113, C69G/D97P/F96I/M100R/Q99S/T101G/T95M/Y94W/Y98T); construct: His-tag; made in house; host or cells: Rosetta(DE3)pLysS E. coli; test: Spectroscopic properties of FAST:fluorogen complexes in PBS pH 7.4 (absorption, emission, quantum yield); type: physicochemical; details: FAST:fluorogen complex, PBS pH 7.4
Sequence (P16113 whole entry C69G/Y94W/T95M/F96I/D97P/Y98T/Q99S/M100R/T101G): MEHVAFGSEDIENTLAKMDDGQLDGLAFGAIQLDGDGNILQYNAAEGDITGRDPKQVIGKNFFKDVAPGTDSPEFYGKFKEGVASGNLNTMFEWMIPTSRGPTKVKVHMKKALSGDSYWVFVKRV
Listed compounds paired with reported Brightness = ε × φ
endpoint name: Brightness = ε × φ

{"compound": "CCOc1cc(/C=C2\\SC(=S)NC2=O)ccc1O [HBR-3OE]", "endpoint name": "Brightness = ε × φ", "observed result": 7000}
{"compound": "COc1cc(/C=C2\\SC(=S)NC2=O)cc(OC)c1O [HBR-3,5DOM]", "endpoint name": "Brightness = ε × φ", "observed result": "12 000"}
{"compound": "Cc1cc(/C=C2\\SC(=S)NC2=O)cc(C)c1O [HBR-3,5DM]", "endpoint name": "Brightness = ε × φ", "observed result": "23 500"}
{"compound": "CCc1cc(/C=C2\\SC(=S)NC2=O)ccc1O [HBR-3E]", "endpoint name": "Brightness = ε × φ", "observed result": 6500}
{"compound": "Cc1cc(C=C2SC(=S)NC2=O)ccc1O [HMBR, 4-hydroxy-3-methylbenzylidene rhodanine, reference compound]", "endpoint name": "Brightness = ε × φ", "observed result": "10 300"}
{"compound": "COc1cc(/C=C2\\SC(=S)NC2=O)ccc1O [HBR-3OM]", "endpoint name": "Brightness = ε × φ", "observed result": "14 400"}
{"compound": "Cc1cc(/C=C2\\SC(=S)NC2=O)c(C)cc1O [HBR-2,5DM]", "endpoint name": "Brightness = ε × φ", "observed result": "14 500"}

Hey, just so you know, these numbers are from paper PMC5618792.
